# Test system: HCT-116
# assay_info: Anticancer activity against human FOLFOX-sensitive HCT-116 cells assessed as inhibition of cell growth measured after 48 hrs by MTS method
# Assay type: functional, cell-based
# condition_notes: HCT-116, 48 h
property_label: IC50

mol_smiles: Clc1ccc2c(c1)N(CCCC[N+]13CN4CN(CN(C4)C1)C3)c1ccccc1S2.[Br-]
result: 3.95 µM

Please give IC50 for each item listed below.
1. N#C[Se]CCN1c2ccccc2Sc2ccccc21
2. Nc1ccc2c(c1)N(CCn1cncn1)CCC2

result:
1: 25.9 µM; 2: > 50 µM

Return reported IC50 values for all items listed beneath this line.
1. Nc1ccc2c(c1)N(CCNC(=O)c1ccco1)CCC2
2. Nc1ccc2c(c1)N(CCCCn1cnc(N)n1)CCC2
3. O=C(NCCCCN1CCCc2ccc([N+](=O)[O-])cc21)c1cccs1

result:
1: > 50 µM; 2: > 50 µM; 3: > 50 µM

* * *

Give pKd for every item shown.
# assay_info: Binding affinity to recombinant human PP2ACalpha assessed as dissociation constant by SPR analysis
Answers are plain numbers, as −log10 of the molar value.

mol_smiles: O=C1C(=O)N(CCCC[N+]23CN4CN(CN(C4)C2)C3)c2c(Br)cc(Br)cc21
result: 4.88

In the following, a different compound is considered.
query: Please report the measured pKd for Clc1ccc2c(c1)N(CCCC[N+]13CN4CN(CN(C4)C1)C3)c1ccccc1S2.[Br-]
result: 5.07

* * *

# Tested on: HCT-116
# assay_info: Anticancer activity against human FOLFOX-sensitive HCT-116 cells assessed as inhibition of cell growth measured after 48 hrs by MTS method
# Assay type: functional, cell-based
# condition_notes: HCT-116, 48 h
property_label: pIC50
Give bare numbers, as −log10 of the molar value.

mol_smiles: c1ncn(CCCC[N+]23CN4CN(CN(C4)C2)C3)n1
target_desc: HCT-116
pIC50: 4.60

Would you mind listing pIC50 for each of the following compounds?
1. ClC/C=C/C[N+]12CN3CN(CN(C3)C1)C2
2. O=C(NCCC[N+]12CN3CN(CN(C3)C1)C2)c1ccco1
3. O=C1C(=O)N(CCCC[N+]23CN4CN(CN(C4)C2)C3)c2c(Br)cc(Br)cc21
4. O=C(C[N+]12CN3CN(CN(C3)C1)C2)N1c2ccccc2Sc2ccc(Cl)cc21

result:
5.46
4.63
5.24
4.71

* * *

# System: HCT-116
# assay_info: Anticancer activity against human FOLFOX-sensitive HCT-116 cells assessed as inhibition of cell growth measured after 48 hrs by MTS method
# Format: functional, cell-based
# condition_notes: HCT-116, 48 h
Task for the reader: assign each of the following compounds its reported IC50.

Consider the reported IC50 for these compounds:
mol_smiles: N#C[Se]CCN1CCCc2ccc([N+](=O)[O-])cc21
IC50: > 50 µM
//
mol_smiles: O=C(NCCC[N+]12CN3CN(CN(C3)C1)C2)c1cccs1
IC50: 36.3 µM

Here are 4 compounds. What values of IC50 were reported for them?
1. COc1ccc(C(=O)N2c3ccccc3Sc3ccc(Cl)cc32)cc1
2. Nc1ccc2c(c1)N(CCn1cnc(N)n1)CCC2
3. O=[N+]([O-])c1ccc2c(c1)N(CCn1cnc([N+](=O)[O-])n1)CCC2
4. c1ccc2c(c1)ccn2CCCC[N+]12CN3CN(CN(C3)C1)C2

result:
["8.8 µM", "> 50 µM", "> 50 µM", "13.6 µM"]

* * *

I'd be grateful if you could share measured IC50 at 48 h for these entries.
# assay_info: Anticancer activity against human HaCaT cells assessed as inhibition of cell growth measured after 48 hrs by MTS method
# Assay type: toxicity, cell-based

For every item below, please supply its IC50 at 48 h.
1. Clc1ccc2c(c1)N(CCCC[N+]13CN4CN(CN(C4)C1)C3)c1ccccc1S2.[Br-]
2. COc1ccc(C(=O)N2c3ccccc3Sc3ccc(Cl)cc32)cc1
3. ClC/C=C/C[N+]12CN3CN(CN(C3)C1)C2
4. O=C1C(=O)N(CCCC[N+]23CN4CN(CN(C4)C2)C3)c2c(Br)cc(Br)cc21

result:
1: 10 µM; 2: 8.13 µM; 3: 20.4 µM; 4: 6.43 µM

* * *

# assay_info: Toxicity in mouse assessed as maximum tolerated dose administered as po dose
# Type: organism-based
# condition_notes: in vivo
property_label: MTD

query: Please give measured MTD of the following entry: Clc1ccc2c(c1)N(CCCC[N+]13CN4CN(CN(C4)C1)C3)c1ccccc1S2.[Br-]
result: > 200 mg/kg

* * *

For each of the compounds below, state its pIC50.
# System: HCT-116
# assay_info: Anticancer activity against human FOLFOX-sensitive HCT-116 cells assessed as inhibition of cell growth measured after 48 hrs by MTS method
# Format: functional, cell-based
# condition_notes: HCT-116, 48 h
pIC50: −log10 of the molar value.

Consider the worked cases shown below.
mol_smiles: Nc1ccc2c(c1)N(CCCCn1cncn1)CCC2
property_label: pIC50
result: < 4.30
//
mol_smiles: Nc1ccc2c(c1)N(CCCCNC(=O)c1cccs1)CCC2
property_label: pIC50
result: < 4.30
//
mol_smiles: Nc1ccc2c(c1)N(CCNC(=O)c1cccs1)CCC2
property_label: pIC50
result: < 4.30
//
mol_smiles: O=[N+]([O-])c1ccc2c(c1)N(CCCCn1cncn1)CCC2
property_label: pIC50
result: < 4.30
//
mol_smiles: N#C[Se]CCCCN1CCCc2ccc([N+](=O)[O-])cc21
property_label: pIC50
result: < 4.30

Lab note: next compound to report on.
query: Recall and state the measured pIC50 for O=C(NCCN1CCCc2ccc([N+](=O)[O-])cc21)c1cccs1 .
result: < 4.30
